Entry source: paper PMC6536413

Below, each of the compounds is paired with its reported AUC value.
- Experimental Protocol: Plasma pharmacokinetics of ATV and metabolites in BDC and UCC dogs (LC-MS/MS)
- Assay type: in vivo
- Test Settings: male, beagle, dog, po, 40 mg/kg, UCC dogs (n = 3), 40 mg/kg oral dose of ATV, ± standard deviation, read-out: AUC0‐24h

| Compound | Result |
| --- | --- |
| CC(C)c1c(C(=O)Nc2ccc(O)cc2)c(-c2ccccc2)c(-c2ccc(F)cc2)n1CC[C@@H](O)C[C@@H](O)CC(=O)O [4‐OH ATV, 4‐hydroxyatorvastatin] | 0.381 µM·h |

Pending compound:
In: Form field: reported AUC of CC(C)c1c(C(=O)Nc2ccccc2O)c(-c2ccccc2)c(-c2ccc(F)cc2)n1CC[C@@H](O)C[C@@H](O)CC(=O)O [2‐OH ATV, 2‐hydroxyatorvastatin]
Out: 0.736 µM·h

====

Below, each of the molecules is paired with its reported Concentration in bile value.
- Experimental Protocol: Concentration of ATV and metabolites in monkey bile obtained by BDC and UCC (LC-MS/MS)
- Assay type: in vivo, cynomolgus macaques
- Test Settings: BDC monkeys, 6‐8 h, 30 mg/kg ATV orally, n = 2 due to blocked/displaced cannulas
- Protocol: Plasma and bile samples were collected. For bile collection monkeys were sedated with ketamine (8 mg/kg) and dexmedetomidine (0.05 mg/kg) intramuscularly. […] Standard curves and quality control (QC) samples defining the dynamic range of the bioanalytical method were prepared in commercially available control plasma and processed in the same fashion as the test samples. […] Samples from individual animals were not pooled prior to quantitative analysis. […]
API: value field is a number in µM; no unit string.

Here are 3 molecules together with their reported answers.
| Molecule | Concentration in bile [µM] |
| --- | --- |
| CC(C)c1c(C(=O)Nc2ccccc2O)c(-c2ccccc2)c(-c2ccc(F)cc2)n1CC[C@@H](O)C[C@@H](O)CC(=O)O [2‐OH ATV, 2‐hydroxyatorvastatin] | 306 |
| CC(C)c1c(C(=O)Nc2ccccc2O)c(-c2ccccc2)c(-c2ccc(F)cc2)n1CC[C@@H]1C[C@@H](O)CC(=O)O1 [2‐OH ATV‐L, 2‐hydroxyatorvastatin lactone] | 52 |
| CC(C)c1c(C(=O)Nc2ccc(O)cc2)c(-c2ccccc2)c(-c2ccc(F)cc2)n1CC[C@@H](O)C[C@@H](O)CC(=O)O [4‐OH ATV, 4‐hydroxyatorvastatin] | 140 |

In: Form field: reported Concentration in bile of CC(C)c1c(C(=O)Nc2ccc(O)cc2)c(-c2ccccc2)c(-c2ccc(F)cc2)n1CC[C@@H]1C[C@@H](O)CC(=O)O1 [4‐OH ATV‐L, 4‐hydroxyatorvastatin lactone]
Out: 3

====

- Experimental Protocol: Concentration of ATV and metabolites in dog bile obtained by BDC and UCC (LC-MS/MS)
- Assay type: in vivo, beagle dogs
- Test Settings: male, beagle, dog, bile, po, 40 mg/kg
Property Label: concentration at 24 h
Entry format: amount then unit.

| Molecule | concentration at 24 h |
| --- | --- |
| CC(C)c1c(C(=O)Nc2ccc(O)cc2)c(-c2ccccc2)c(-c2ccc(F)cc2)n1CC[C@@H](O)C[C@@H](O)CC(=O)O [4‐OH ATV, 4‐hydroxyatorvastatin] | 262 µM |

Pending molecule:
In: Form field: reported concentration at 24 h of CC(C)c1c(C(=O)Nc2ccccc2O)c(-c2ccccc2)c(-c2ccc(F)cc2)n1CC[C@@H](O)C[C@@H](O)CC(=O)O [2‐OH ATV, 2‐hydroxyatorvastatin]
Out: 63 µM

====

- Experimental Protocol: Concentration of ATV and metabolites in dog bile obtained by BDC and UCC (LC-MS/MS)
- Type: in vivo, beagle dogs
- Test Settings: male, beagle, dog, bile, po, 40 mg/kg
Property Label: concentration at 6 h (µM)
API: value field is a number in µM; no unit string.

| Compound | Unit Info | concentration at 6 h |
| --- | --- | --- |
| CC(C)c1c(C(=O)Nc2ccc(O)cc2)c(-c2ccccc2)c(-c2ccc(F)cc2)n1CC[C@@H](O)C[C@@H](O)CC(=O)O [4‐OH ATV, 4‐hydroxyatorvastatin] | µM | 279 |

In: Form field: reported concentration at 6 h of CC(C)c1c(C(=O)Nc2ccccc2O)c(-c2ccccc2)c(-c2ccc(F)cc2)n1CC[C@@H](O)C[C@@H](O)CC(=O)O [2‐OH ATV, 2‐hydroxyatorvastatin]
Out: 151

====

Below, each of the compounds is paired with its reported Cmax value.
- Experimental Protocol: Plasma pharmacokinetics of ATV and metabolites in BDC and UCC monkeys (LC-MS/MS)
- Assay type: in vivo, cynomolgus macaques
- Test Settings: male, cynomolgus, cynomolgus monkey, plasma, po, 30 mg/kg, BDC monkeys (n = 4), 30 mg/kg oral dose of ATV, ± standard deviation
API: value field is a number in nM; no unit string.

| Compound | Number |
| --- | --- |
| CC(C)c1c(C(=O)Nc2ccccc2O)c(-c2ccccc2)c(-c2ccc(F)cc2)n1CC[C@@H](O)C[C@@H](O)CC(=O)O [2‐OH ATV, 2‐hydroxyatorvastatin] | 55 |

In: Form field: reported Cmax of CC(C)c1c(C(=O)Nc2ccccc2O)c(-c2ccccc2)c(-c2ccc(F)cc2)n1CC[C@@H]1C[C@@H](O)CC(=O)O1 [2‐OH ATV‐L, 2‐hydroxyatorvastatin lactone]
Out: 24

====

- Experimental Protocol: Plasma pharmacokinetics of ATV and metabolites in BDC and UCC dogs (LC-MS/MS)
- Type: in vivo
- Test Settings: male, beagle, dog, po, 40 mg/kg, BDC dogs (n = 3), 40 mg/kg oral dose of ATV, ± standard deviation
Property Label: Tmax (h)
API: value field is a number in h; no unit string.

| Compound | Property Label | Number |
| --- | --- | --- |
| CC(C)c1c(C(=O)Nc2ccccc2O)c(-c2ccccc2)c(-c2ccc(F)cc2)n1CC[C@@H](O)C[C@@H](O)CC(=O)O [2‐OH ATV, 2‐hydroxyatorvastatin] | Tmax | 2 |

Pending compound:
In: Form field: reported Tmax of CC(C)c1c(C(=O)Nc2ccc(O)cc2)c(-c2ccccc2)c(-c2ccc(F)cc2)n1CC[C@@H](O)C[C@@H](O)CC(=O)O [4‐OH ATV, 4‐hydroxyatorvastatin]
Out: 2.7

====

- Experimental Protocol: Plasma pharmacokinetics of ATV and metabolites in BDC and UCC dogs (LC-MS/MS)
- Type: in vivo
- Test Settings: male, beagle, dog, po, 40 mg/kg, UCC dogs (n = 3), 40 mg/kg oral dose of ATV, ± standard deviation
Property Label: Tmax (h)
API: value field is a number in h; no unit string.

| Compound | Tmax, h |
| --- | --- |
| CC(C)c1c(C(=O)Nc2ccc(O)cc2)c(-c2ccccc2)c(-c2ccc(F)cc2)n1CC[C@@H](O)C[C@@H](O)CC(=O)O [4‐OH ATV, 4‐hydroxyatorvastatin] | 3.3 |

Pending compound:
In: Form field: reported Tmax of CC(C)c1c(C(=O)Nc2ccccc2O)c(-c2ccccc2)c(-c2ccc(F)cc2)n1CC[C@@H](O)C[C@@H](O)CC(=O)O [2‐OH ATV, 2‐hydroxyatorvastatin]
Out: 1.7

====

- Experimental Protocol: Concentration of ATV and metabolites in monkey bile obtained by BDC and UCC (LC-MS/MS)
- Type: in vivo, cynomolgus macaques
- Test Settings: male, cynomolgus, cynomolgus monkey, bile, po, 30 mg/kg
Property Label: concentration at 24 h (µM)
API: value field is a number in µM; no unit string.

| Molecule | concentration at 24 h (µM) |
| --- | --- |
| CC(C)c1c(C(=O)Nc2ccc(O)cc2)c(-c2ccccc2)c(-c2ccc(F)cc2)n1CC[C@@H]1C[C@@H](O)CC(=O)O1 [4‐OH ATV‐L, 4‐hydroxyatorvastatin lactone] | 19 |
| CC(C)c1c(C(=O)Nc2ccccc2O)c(-c2ccccc2)c(-c2ccc(F)cc2)n1CC[C@@H]1C[C@@H](O)CC(=O)O1 [2‐OH ATV‐L, 2‐hydroxyatorvastatin lactone] | 147 |
| CC(C)c1c(C(=O)Nc2ccccc2O)c(-c2ccccc2)c(-c2ccc(F)cc2)n1CC[C@@H](O)C[C@@H](O)CC(=O)O [2‐OH ATV, 2‐hydroxyatorvastatin] | 586 |

Pending molecule:
In: Form field: reported concentration at 24 h of CC(C)c1c(C(=O)Nc2ccc(O)cc2)c(-c2ccccc2)c(-c2ccc(F)cc2)n1CC[C@@H](O)C[C@@H](O)CC(=O)O [4‐OH ATV, 4‐hydroxyatorvastatin]
Out: 594

====

- Experimental Protocol: Concentration of ATV and metabolites in monkey bile obtained by BDC and UCC (LC-MS/MS)
- Assay type: in vivo, cynomolgus macaques
- Test Settings: BDC monkeys, 2‐4 h, 30 mg/kg ATV orally, ± standard deviation
Property Label: Concentration in bile

Here are 2 compounds together with their reported answers.
| Compound | Concentration in bile |
| --- | --- |
| CC(C)c1c(C(=O)Nc2ccc(O)cc2)c(-c2ccccc2)c(-c2ccc(F)cc2)n1CC[C@@H]1C[C@@H](O)CC(=O)O1 [4‐OH ATV‐L, 4‐hydroxyatorvastatin lactone] | 6 ± 3 µM |
| CC(C)c1c(C(=O)Nc2ccccc2O)c(-c2ccccc2)c(-c2ccc(F)cc2)n1CC[C@@H]1C[C@@H](O)CC(=O)O1 [2‐OH ATV‐L, 2‐hydroxyatorvastatin lactone] | 93 ± 57 µM |

In: Form field: reported Concentration in bile of CC(C)c1c(C(=O)Nc2ccc(O)cc2)c(-c2ccccc2)c(-c2ccc(F)cc2)n1CC[C@@H](O)C[C@@H](O)CC(=O)O [4‐OH ATV, 4‐hydroxyatorvastatin]
Out: 180 ± 68 µM

In: Form field: reported Concentration in bile of CC(C)c1c(C(=O)Nc2ccccc2O)c(-c2ccccc2)c(-c2ccc(F)cc2)n1CC[C@@H](O)C[C@@H](O)CC(=O)O [2‐OH ATV, 2‐hydroxyatorvastatin]
Out: 317 ± 66 µM
